tested on: SMN protein; assay: SMN protein assay (HTRF) in cultured SMA patient fibroblast cells; assay type: cell-based; conditions: SMA Type 1 human fibroblasts GM03813, 48 hours, 7-point concentration data; fold vs vehicle control
Where a name gives a salt, the structure may show the parent alone.
Parameter: max. fold increase (maximum fold increase of SMN protein)
One number for each entry.

Dear colleague, could you send me max. fold increase (maximum fold increase of SMN protein) for each of the items below? Thanks.
1. Cc1cn2cc(NC(=O)c3ccc(N4CCNC(C)C4)nc3)cc(F)c2n1 (racemic) [Example 42, dihydrochloride]
2. Cc1cn2cc(NC(=O)c3cnc(N4CCNCC4)cc3F)cc(F)c2n1
3. Cc1cn2cc(NC(=O)c3ccc(C4=CCNCC4)nc3)cc(F)c2n1 [Example 62, dihydrochloride]
4. Cc1nc2c(F)cc(NC(=O)c3ccc(N4CCNCC4)cc3)cc2o1
5. Cc1cn2cc(NC(=O)c3cc(F)c(N4CCNC(C)C4)cc3F)cc(F)c2n1 (racemic) [Example 46, hydrochloride]
6. Cc1cn2cc(NC(=O)c3ccc(N4CCNCC4)nc3OCC(F)(F)F)cc(F)c2n1

Data returned:
[1.6988, 1.6943, 1.5583, 1.7291, 1.5572, 1.5775]
